# System: multi-resistant Staphylococcus aureus 222 (MRSA-222)
# Measurement description: Paper diffusion method drug sensitivity test, MRSA-222
# Format: cell-based
# Setup conditions: strain MRSA-222; drug sensitive paper 30 μg/tablet, 6.35 mm; LB plate, 37° C., 24 h; ≥17 mm sensitive, 15-16 mm intermediary, ≤14 mm resistance
Measure: Zone of inhibition (mm)
Field: numeric (mm). Do not append units.

Below, 3 compounds whose answers are already recorded.
>>> result_number("O=C(O)/C=C/c1ccc(Cn2ccnc2)cc1 [(E)-4-(1-imidazoylmethyl)cinnamic acid]")
0
>>> result_number("C=C[C@]1(C)C[C@@H](OC(=O)CO)[C@]2(C)[C@H](C)CC[C@]3(CCC(=O)[C@H]32)[C@@H](C)[C@@H]1O")
0
>>> result_number("C=C[C@]1(C)C[C@@H](OC(=O)COC(=O)/C=C/c2ccc(Cn3ccnc3)cc2)[C@]2(C)[C@H](C)CC[C@]3(CCC(=O)[C@H]32)[C@@H](C)[C@@H]1O")
17

As a next step, examine the compound that follows.
Lookup result for CN[C@H](CC(C)C)C(=O)N[C@H]1C(=O)N[C@@H](CC(N)=O)C(=O)N[C@H]2C(=O)N[C@H]3C(=O)N[C@H](C(=O)N[C@H](C(=O)O)c4cc(O)cc(O)c4-c4cc3ccc4O)[C@H](O)c3ccc(c(Cl)c3)Oc3cc2cc(c3O[C@@H]2O[C@H](CO)[C@@H](O)[C@H](O)[C@H]2O[C@H]2C[C@](C)(N)[C@H](O)[C@H](C)O2)Oc2ccc(cc2Cl)[C@H]1O ; measured Zone of inhibition: 18

----------
# Tested on: multi-resistant Staphylococcus aureus 171 (MRSA-171)
# Measurement description: Paper diffusion method drug sensitivity test, MRSA-171
# Assay type: cell-based
# Setup conditions: strain MRSA-171; drug sensitive paper 30 μg/tablet, 6.35 mm; LB plate, 37° C., 24 h; ≥17 mm sensitive, 15-16 mm intermediary, ≤14 mm resistance
Measure: Zone of inhibition (mm)
Field: numeric (mm). Do not append units.

Below, 2 compounds whose answers are already recorded.
>>> result_number("C=C[C@]1(C)C[C@@H](OC(=O)COC(=O)/C=C/c2ccc(Cn3ccnc3)cc2)[C@]2(C)[C@H](C)CC[C@]3(CCC(=O)[C@H]32)[C@@H](C)[C@@H]1O")
16
>>> result_number("CN[C@H](CC(C)C)C(=O)N[C@H]1C(=O)N[C@@H](CC(N)=O)C(=O)N[C@H]2C(=O)N[C@H]3C(=O)N[C@H](C(=O)N[C@H](C(=O)O)c4cc(O)cc(O)c4-c4cc3ccc4O)[C@H](O)c3ccc(c(Cl)c3)Oc3cc2cc(c3O[C@@H]2O[C@H](CO)[C@@H](O)[C@H](O)[C@H]2O[C@H]2C[C@](C)(N)[C@H](O)[C@H](C)O2)Oc2ccc(cc2Cl)[C@H]1O")
17

Lookup result for C=C[C@]1(C)C[C@@H](OC(=O)CO)[C@]2(C)[C@H](C)CC[C@]3(CCC(=O)[C@H]32)[C@@H](C)[C@@H]1O ; measured Zone of inhibition: 0

Lookup result for O=C(O)/C=C/c1ccc(Cn2ccnc2)cc1 [(E)-4-(1-imidazoylmethyl)cinnamic acid] ; measured Zone of inhibition: 0
